# Test system: HeLa Kyoto;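 note: synchronized HeLa Kyoto cells (double thymidine block for G1/S, nocodazole release for mitosis), protein amounts in NP-40 versus SDS lysates quantified by mass spectrometry, three biological replicates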
# measurement_notes: solubility change mitosis vs G1/S (difference of NP-40 vs SDS log2 ratios) (log2 ratio difference); higher = more soluble in mitosis
reported_metric: solubility change mitosis (log2)
A bare number is all that is needed in reply.

Reference set (2 entries):
record_sequence="MSLQSRLSGRLAQLRAAGQLLVPPRPRPGHLAGATRTRSSTCGPPAFLGVFGRRARTSAGVGAWGAAAVGRTAGVRTWAPLAMAAKVDLSTSTDWKEAKSFLKGLSDKQREEHYFCKDFVRLKKIPTWKEMAKGVAVKVEEPRYKKDKQLNEKISLLRSDITKLEVDAIVNAANSSLLGGGGVDGCIHRAAGPLLTDECRTLQSCKTGKAKITGGYRLPAKYVIHTVGPIAYGEPSASQAAELRSCYLSSLDLLLEHRLRSVAFPCISTGVFGYPCEAAAEIVLATLREWLEQHKDKVDRLIICVFLEKDEDIYRSRLPHYFPVA [MACROD1]" target="HeLa Kyoto" reported_metric="solubility change mitosis (log2)" readout_value=-0.147
record_sequence="MEFDLGAALEPTSQKPGVGAGHGGDPKLSPHKVQGRSEAGAGPGPKQGHHSSSDSSSSSSDSDTDVKSHAAGSKQHESIPGKAKKPKVKKKEKGKKEKGKKKEAPH [IMUP]" target="HeLa Kyoto" reported_metric="solubility change mitosis (log2)" readout_value=0.311

Recorded solubility change mitosis (log2) of MAPRLCSISVTARRLLGGPGPRAGDVASAAAARFYSKDNEGSWFRSLFVHKVDPRKDAHSTLLSKKETSNLYKIQFHNVKPEYLDAYNSLTEAVLPKLHLDEDYPCSLVGNWNTWYGEQDQAVHLWRFSGGYPALMDCMNKLKNNKEYLEFRRERSQMLLSRRNQLLLEFSFWNEPQPRMGPNIYELRTYKLKPGTMIEWGNNWARAIKYRQENQEAVGGFFSQIGELYVVHHLWAYKDLQSREETRNAAWRKRGWDENVYYTVPLVRHMESRIMIPLKISPLQ [NIPSNAP1] , please. -0.0766
